# System: HT-29
# ASSAY_OVERVIEW: Anticancer activity against human HT-29 cells assessed as growth inhibition at 50 uM after 48 hrs by SRB assay
# Assay type: functional
# STATED_CONDITIONS: HT-29, 48 h, read-out: GI
# inhibition of growth at 50 µM per record follows
Unit % implied. Number only.

These solved cases illustrate the format of a correct answer.
{"SMILES": "COC(=O)[C@]1(C)[C@@H]2CC[C@]3(C)[C@H](CC=C4[C@@H]5[C@@H](C)[C@H](C)CC[C@]5(C)CC[C@]43C)[C@@]2(C)CC[C@@H]1O", "UNIT_ABBREVIATION": "%", "inhibition of growth at 50 µM": 5}
{"SMILES": "C[C@H]1[C@H](C)CC[C@]2(C)CC[C@]3(C)C(=CC(=O)[C@@H]4[C@@]5(C)CC[C@@H](OC=O)[C@](C)(C(=O)O)[C@@H]5CC[C@]43C)[C@H]12", "UNIT_ABBREVIATION": "%", "inhibition of growth at 50 µM": 63}
{"SMILES": "CC(=O)O[C@@H]1CC[C@@]2(C)[C@@H](CC[C@]3(C)[C@@H]2CC=C2[C@@H]4[C@@H](C)[C@H](C)CC[C@]4(C)CC[C@]23C)[C@@]1(C)C(=O)O", "UNIT_ABBREVIATION": "%", "inhibition of growth at 50 µM": 93}

Any idea what inhibition of growth at 50 µM was measured for COC(=O)[C@@]1(C)[C@H](O)CC[C@@]2(C)[C@H]1CC[C@]1(C)[C@@H]2CC=C2[C@@H]3[C@@H](C)[C@H](C)CC[C@]3(C)CC[C@]21C ? 35

Any idea what inhibition of growth at 50 µM was measured for C[C@H]1[C@H](C)CC[C@]2(C)CC[C@]3(C)C(=CC(=O)[C@@H]4[C@@]5(C)CC[C@H](O)[C@](C)(C(=O)O)[C@@H]5CC[C@]43C)[C@H]12 ? 44
